Target: RPMI 8866 cells (Homo sapiens, UniProt P13612+P26010)
Sequence (P13612 34-1032): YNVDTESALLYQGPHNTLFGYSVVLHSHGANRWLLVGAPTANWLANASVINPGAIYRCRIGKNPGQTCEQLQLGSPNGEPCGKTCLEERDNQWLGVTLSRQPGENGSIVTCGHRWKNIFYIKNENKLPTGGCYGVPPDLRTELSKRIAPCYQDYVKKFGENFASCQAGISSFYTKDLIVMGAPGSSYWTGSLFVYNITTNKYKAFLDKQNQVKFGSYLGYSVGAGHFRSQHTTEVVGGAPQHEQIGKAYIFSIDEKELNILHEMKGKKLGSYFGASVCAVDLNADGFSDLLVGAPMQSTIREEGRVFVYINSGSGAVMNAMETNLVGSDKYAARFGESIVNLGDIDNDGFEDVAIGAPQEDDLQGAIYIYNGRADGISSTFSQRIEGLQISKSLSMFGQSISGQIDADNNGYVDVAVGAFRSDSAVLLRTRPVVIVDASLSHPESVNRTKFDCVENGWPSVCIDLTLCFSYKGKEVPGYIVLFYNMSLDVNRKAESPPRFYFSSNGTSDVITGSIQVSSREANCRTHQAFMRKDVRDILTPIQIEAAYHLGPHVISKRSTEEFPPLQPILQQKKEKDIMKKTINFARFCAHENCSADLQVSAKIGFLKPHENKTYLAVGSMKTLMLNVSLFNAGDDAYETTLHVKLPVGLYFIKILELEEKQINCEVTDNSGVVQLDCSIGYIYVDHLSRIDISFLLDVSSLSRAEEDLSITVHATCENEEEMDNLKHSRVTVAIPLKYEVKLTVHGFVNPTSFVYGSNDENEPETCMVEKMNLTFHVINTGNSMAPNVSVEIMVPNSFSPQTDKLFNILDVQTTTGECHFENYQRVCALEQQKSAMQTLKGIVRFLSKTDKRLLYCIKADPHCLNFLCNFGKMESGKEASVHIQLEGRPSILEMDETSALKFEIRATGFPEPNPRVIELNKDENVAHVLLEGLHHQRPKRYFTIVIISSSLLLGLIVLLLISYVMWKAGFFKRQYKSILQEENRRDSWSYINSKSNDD
Sequence (P26010 20-798): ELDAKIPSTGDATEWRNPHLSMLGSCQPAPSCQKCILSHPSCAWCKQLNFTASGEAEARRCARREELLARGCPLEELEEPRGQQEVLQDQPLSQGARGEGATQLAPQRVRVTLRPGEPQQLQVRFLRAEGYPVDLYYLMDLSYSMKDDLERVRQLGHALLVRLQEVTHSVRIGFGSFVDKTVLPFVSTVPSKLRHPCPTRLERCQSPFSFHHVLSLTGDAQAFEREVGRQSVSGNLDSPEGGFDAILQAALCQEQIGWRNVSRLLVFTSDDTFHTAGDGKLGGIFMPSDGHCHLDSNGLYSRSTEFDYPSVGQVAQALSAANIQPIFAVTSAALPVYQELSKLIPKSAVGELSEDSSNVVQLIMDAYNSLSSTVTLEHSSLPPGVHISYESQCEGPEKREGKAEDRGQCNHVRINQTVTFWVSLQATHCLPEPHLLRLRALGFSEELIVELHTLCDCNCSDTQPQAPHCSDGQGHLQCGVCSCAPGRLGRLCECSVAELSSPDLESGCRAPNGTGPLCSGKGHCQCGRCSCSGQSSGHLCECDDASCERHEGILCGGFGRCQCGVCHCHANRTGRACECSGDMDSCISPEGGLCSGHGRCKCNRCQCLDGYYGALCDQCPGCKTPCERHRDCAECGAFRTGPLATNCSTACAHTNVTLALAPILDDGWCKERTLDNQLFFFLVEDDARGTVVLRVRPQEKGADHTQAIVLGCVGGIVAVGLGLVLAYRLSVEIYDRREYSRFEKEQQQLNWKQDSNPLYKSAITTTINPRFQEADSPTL
Assay: α4β7-MAdCAM Cell Adhesion Assay
Type: cell-based
Settings: thioether monomer peptides, Table 6; read-out: Cell-Adhesion A4B7
Protocol: α4β7-MAdCAM Cell Adhesion Assay […] A Nunc MaxiSorp plate was coated with rh MAdCAM-1/Fc Chimera (R&D #6065-MC) at 200 ng per well in 50 ul per well in 1×PBS and incubated at 4° C. overnight. […] The plate was shaken for 5 min and the absorbance at 570 nm is measured. To calculate the dose response, the absorbance value of control wells not containing cells was subtracted from each test well.
pIC50: −log10 of the molar value. *1 amine or outer side, *2 acyl side, *3 side chain or, on linkers, in order; H or OH if unused. Where a SMILES comes first, the peptide text is derived from it. Bridges are numbered along the chain shown (N, C = ends). [ ]: non-standard residue; d: D form. Phe(2-Me) = Cc1ccccc1C[C@H](N)C(=O)O; NMeR = CN[C@@H](CCCNC(=N)N)C(=O)O; β3hE = N[C@@H](CCC(=O)O)CC(=O)O; X1 = O=C(c1ccccc1C[*:2])[*:1]; Pen = CC(C)(S)[C@H](N)C(=O)O
Reported pIC50 values follow for various molecules

Consider the reported pIC50 for these molecules:
molecule	pIC50
CC(C)C[C@@H]1NC(=O)[C@H]([C@@H](C)O)NC(=O)[C@H](CC(=O)O)NC(=O)[C@H](CO)NC(=O)[C@H](CCCNC(=N)N)N(C)C(=O)c2ccccc2CSC(C)(C)[C@@H](C(=O)N[C@@H](Cc2c[nH]c3ccccc23)C(=O)N[C@H](CCC(=O)O)C(=O)N[C@H](CCC(=O)O)C(N)=O)NC1=O [compound 108] (HELM PEPTIDE1{[meR].S.D.T.L.[Pen].W.[dE].[dE].[am]}|CHEM1{[O=C(c1ccccc1C[*:2])[*:1]]}$PEPTIDE1,CHEM1,1:R1-1:R1|PEPTIDE1,CHEM1,6:R3-1:R2$$$V2.0)	7.00 to 7.60
CC(C)C[C@@H]1NC(=O)[C@H]([C@@H](C)O)NC(=O)[C@H](CC(=O)O)NC(=O)[C@H](CO)NC(=O)[C@H](CCCNC(=N)N)N(C)C(=O)c2cccc(c2)CSC(C)(C)[C@@H](C(=O)N[C@@H](Cc2c[nH]c3ccccc23)C(=O)N[C@H](CCC(=O)O)C(=O)N[C@H](CCCCN)C(N)=O)NC1=O [compound 111] (HELM PEPTIDE1{[meR].S.D.T.L.[Pen].W.[dE].[dK].[am]}|CHEM1{[O=C(c1cccc(C[*:2])c1)[*:1]]}$PEPTIDE1,CHEM1,1:R1-1:R1|PEPTIDE1,CHEM1,6:R3-1:R2$$$V2.0)	< 6.00

### Prompt Name the reported pIC50 value associated with the molecule Cc1ccccc1C[C@H](NC(=O)[C@H]1NC(=O)[C@H](CC(C)C)NC(=O)[C@H]([C@@H](C)O)NC(=O)[C@H](CC(=O)O)NC(=O)[C@H](CO)NC(=O)[C@H](CCCNC(=N)N)N(C)C(=O)c2ccccc2CSC1(C)C)C(=O)N[C@@H](CCC(=O)O)CC(N)=O [compound 126] ([NMeR]SDTL[Pen][Phe(2-Me)][β3hE]-NH2; linker N-6 via X1)
### Response 7.00 to 7.60

* * *

assay: Simulated Intestinal Fluid (SIF) Stability Assay; assay type: in vitro ADME; conditions: pig, simulated intestinal fluid (SIF) with 1% porcine pancreatin, pH 6.5, porcine pancreatin, 37° C.; monomers, Table 6
Where a SMILES comes first, the peptide text is derived from it.
Reported half-life at 22 μM values follow for various molecules
Your answer should be a plain number; it is taken to be in min.

molecule	half-life at 22 μM, min
CC(C)C[C@@H]1NC(=O)[C@H]([C@@H](C)O)NC(=O)[C@H](CC(=O)O)NC(=O)[C@H](CO)NC(=O)[C@H](CCCNC(=N)N)N(C)C(=O)c2ccccc2CSC[C@@H](C(=O)N[C@@H](Cc2c[nH]c3ccccc23)C(=O)N[C@@H](CCC(=O)O)C(=O)N[C@H](CCCCN)C(N)=O)NC1=O [compound 55] (HELM PEPTIDE1{[meR].S.D.T.L.C.W.E.[dK].[am]}|CHEM1{[O=C(c1ccccc1C[*:2])[*:1]]}$PEPTIDE1,CHEM1,1:R1-1:R1|PEPTIDE1,CHEM1,6:R3-1:R2$$$V2.0)	25

We next turn to a different molecule, shown below.
### Prompt Name the reported half-life at 22 μM value associated with the molecule CC(C)C[C@@H]1NC(=O)[C@H]([C@@H](C)O)NC(=O)[C@H](CC(=O)O)NC(=O)[C@H](CO)NC(=O)[C@H](CCCNC(=N)N)N(C)C(=O)c2ccccc2CSC(C)(C)[C@@H](C(=O)N[C@@H](Cc2c[nH]c3ccccc23)C(=O)N[C@@H](CCC(=O)O)C(N)=O)NC1=O [compound 96] (HELM PEPTIDE1{[meR].S.D.T.L.[Pen].W.E.[am]}|CHEM1{[O=C(c1ccccc1C[*:2])[*:1]]}$PEPTIDE1,CHEM1,1:R1-1:R1|PEPTIDE1,CHEM1,6:R3-1:R2$$$V2.0)
### Response 26

* * *

Biological target: RPMI 8866 cells (Homo sapiens, UniProt P13612+P26010)
Assay: α4β7-MAdCAM Cell Adhesion Assay
Format: cell-based
Details: thioether peptide dimers, Table 7; read-out: Cell-Adhesion A4B7
Procedure: α4β7-MAdCAM Cell Adhesion Assay […] A Nunc MaxiSorp plate was coated with rh MAdCAM-1/Fc Chimera (R&D #6065-MC) at 200 ng per well in 50 ul per well in 1×PBS and incubated at 4° C. overnight. […] The plate was shaken for 5 min and the absorbance at 570 nm is measured. To calculate the dose response, the absorbance value of control wells not containing cells was subtracted from each test well.
Where a SMILES comes first, the peptide text is derived from it.
property label: IC50

compound	IC50
CC(C)C[C@@H]1NC(=O)[C@H]([C@@H](C)O)NC(=O)[C@H](CC(=O)O)NC(=O)[C@H](CO)NC(=O)[C@H](CCCNC(=N)N)N(C)C(=O)c2ccccc2CSC(C)(C)[C@@H](C(=O)N[C@@H](Cc2c[nH]c3ccccc23)C(=O)N[C@H](CCC(=O)O)C(=O)N[C@@H](Cc2ccccc2)C(=O)N[C@H](CCCCN)C(N)=O)NC1=O [compound 192] (HELM PEPTIDE1{[meR].S.D.T.L.[Pen].W.[dE].F.[dK].[am]}|CHEM1{[O=C(c1ccccc1C[*:2])[*:1]]}$PEPTIDE1,CHEM1,1:R1-1:R1|PEPTIDE1,CHEM1,6:R3-1:R2$$$V2.0)	< 25 nM
CC(C)C[C@@H]1NC(=O)[C@H]([C@@H](C)O)NC(=O)[C@H](CC(=O)O)NC(=O)[C@H](CO)NC(=O)[C@H](CCCNC(=N)N)N(C)C(=O)c2ccccc2CSC[C@@H](C(=O)N2Cc3ccccc3C[C@H]2C(=O)N[C@H](CCCCN)C(N)=O)NC1=O [compound 216] (HELM PEPTIDE1{[meR].S.D.T.L.C.[Tic].[dK].[am]}|CHEM1{[O=C(c1ccccc1C[*:2])[*:1]]}$PEPTIDE1,CHEM1,1:R1-1:R1|PEPTIDE1,CHEM1,6:R3-1:R2$$$V2.0)	< 25 nM

### Prompt GET /values?readout=IC50&system=RPMI 8866 cells (Homo sapiens, UniProt P13612+P26010)&item= CC(C)C[C@@H]1NC(=O)[C@H]([C@@H](C)O)NC(=O)[C@H](CCC(=O)O)NC(=O)[C@H](CO)NC(=O)[C@H](CCCNC(=N)N)N(C)C(=O)c2ccccc2CSC(C)(C)[C@@H](C(=O)N[C@@H](Cc2ccccc2)C(=O)N[C@H](CCC(=O)O)C(=O)N[C@H](CCCCN)C(N)=O)NC1=O [compound 189] (HELM PEPTIDE1{[meR].S.E.T.L.[Pen].F.[dE].[dK].[am]}|CHEM1{[O=C(c1ccccc1C[*:2])[*:1]]}$PEPTIDE1,CHEM1,1:R1-1:R1|PEPTIDE1,CHEM1,6:R3-1:R2$$$V2.0)
### Response > 1000 nM

### Prompt GET /values?readout=IC50&system=RPMI 8866 cells (Homo sapiens, UniProt P13612+P26010)&item= CC(C)C[C@@H]1NC(=O)[C@H]([C@@H](C)O)NC(=O)[C@H](CC(=O)O)NC(=O)[C@H](CO)NC(=O)[C@H](CCCNC(=N)N)N(C)C(=O)CCSCC[C@@H](C(=O)N[C@@H](Cc2c[nH]c3ccccc23)C(=O)N[C@H](CCCCNC(=O)COCC(=O)NCCCC[C@@H](NC(=O)[C@H](Cc2c[nH]c3ccccc23)NC(=O)[C@@H]2CCSCCC(=O)N(C)[C@@H](CCCNC(=N)N)C(=O)N[C@@H](CO)C(=O)N[C@@H](CC(=O)O)C(=O)N[C@@H]([C@@H](C)O)C(=O)N[C@@H](CC(C)C)C(=O)N2)C(N)=O)C(N)=O)NC1=O [compound 149]
### Response > 1000 nM
